Biological target: T1, EsCas13d, nuclease-dead (Eubacterium siraeum, UniProt B0MS50, R295A;H300A;R849A;H854A)
T1 sequence: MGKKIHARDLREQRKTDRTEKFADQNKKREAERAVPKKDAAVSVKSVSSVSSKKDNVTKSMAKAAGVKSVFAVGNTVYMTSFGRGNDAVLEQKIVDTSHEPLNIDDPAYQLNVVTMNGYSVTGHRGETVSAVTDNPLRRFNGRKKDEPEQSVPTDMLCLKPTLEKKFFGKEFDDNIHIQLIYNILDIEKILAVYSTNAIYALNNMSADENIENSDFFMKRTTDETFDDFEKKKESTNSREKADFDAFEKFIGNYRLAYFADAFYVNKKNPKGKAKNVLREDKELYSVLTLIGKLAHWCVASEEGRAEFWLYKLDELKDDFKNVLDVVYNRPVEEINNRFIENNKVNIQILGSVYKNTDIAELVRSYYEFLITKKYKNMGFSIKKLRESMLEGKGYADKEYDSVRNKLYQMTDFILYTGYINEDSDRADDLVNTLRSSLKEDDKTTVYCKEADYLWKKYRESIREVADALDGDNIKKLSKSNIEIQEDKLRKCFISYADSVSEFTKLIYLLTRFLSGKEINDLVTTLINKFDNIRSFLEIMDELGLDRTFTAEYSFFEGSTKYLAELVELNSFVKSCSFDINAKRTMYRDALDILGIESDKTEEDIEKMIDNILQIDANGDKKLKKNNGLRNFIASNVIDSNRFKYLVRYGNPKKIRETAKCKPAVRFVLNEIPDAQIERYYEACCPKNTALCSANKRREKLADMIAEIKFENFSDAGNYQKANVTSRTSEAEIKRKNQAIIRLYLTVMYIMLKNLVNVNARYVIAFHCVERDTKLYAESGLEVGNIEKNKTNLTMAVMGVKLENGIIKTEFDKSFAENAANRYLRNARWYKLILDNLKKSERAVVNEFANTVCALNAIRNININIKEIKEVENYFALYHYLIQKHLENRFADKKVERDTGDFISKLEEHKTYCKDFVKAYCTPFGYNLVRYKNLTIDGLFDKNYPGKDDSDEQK
Experiment: crRNA (strand 1, pre-loaded); Mg2+; 40 mM Tris-HCl pH 7.5, 150 mM NaCl, 6 mM MgCl2, 1 mM DTT, 0.1% Tween-20, 0.2 mg/ml BSA; 25 C; 10 min per concentration, then washed
Details: tags: His6-TwinStrep-SUMO cleaved; N-terminal SNAP kept (SNAP-Surface 488); label: 3' end held by stalled T7 RNA polymerase
pKd: −log10 of the molar value.
# key: entry, value: pKd

[
  {
    "binder": "target 3 U2G,A12G (mixed) RNA 1: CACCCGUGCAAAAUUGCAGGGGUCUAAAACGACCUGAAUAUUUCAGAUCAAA RNA 2: GGGAAUGGAUCCACAUCUACGAAUUCGUUUUUGAUCUGAGAUAUUCAGGGCUGCAGAUCGGAAGAGCACACGU",
    "pKd": 7.47
  },
  {
    "binder": "target 1 MT 5'PFS UCG 3'PFS ACA (mixed) RNA 1: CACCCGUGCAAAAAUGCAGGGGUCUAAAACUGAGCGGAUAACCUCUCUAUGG RNA 2: GGGAAUGGAUCCACAUCUACGAAUUCUCGCCAUAGAGAGGUUAUCCGCUCAACAAGAUCGGAAGAGCACACGU",
    "pKd": 7.44
  },
  {
    "binder": "target 1 MT 5'PFS CCU 3'PFS UAC (mixed) RNA 1: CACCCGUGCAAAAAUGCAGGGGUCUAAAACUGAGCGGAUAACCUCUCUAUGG RNA 2: GGGAAUGGAUCCACAUCUACGAAUUCCCUCCAUAGAGAGGUUAUCCGCUCAUACAGAUCGGAAGAGCACACGU",
    "pKd": 7.87
  },
  {
    "binder": "target 2 MT 5'PFS UGG 3'PFS CAA (mixed) RNA 1: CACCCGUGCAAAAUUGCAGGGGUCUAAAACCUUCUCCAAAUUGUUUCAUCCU RNA 2: GGGAAUGGAUCCACAUCUACGAAUUCUGGAGGAUGAAACAAUUUGGAGAAGCAAAGAUCGGAAGAGCACACGU",
    "pKd": 8.33
  }
]
